assay: BET inhibitor-based combinations targeting novel dependencies in MECOM-rearranged (r) AML: MV-4-11 cell line (AID 2202233); settings: MV-4-11 AML viability, CellTiter-Glo luminescence, 48 h; series mostly up to 46 µM; note: potency is the fitted concentration of half-maximal effect; nearly all actives have a fitted effect of over 45% in size
Results filed as inconclusive are left out. Calls of active or inactive are those of the source. Calls come from the whole dose curve; as a rule, active = well fitted inhibition curve with a large enough effect; inconclusive = small, poorly fitted or top-dose-only effect; inactive = no such curve, though single readings can be large or run the other way.
measured property: Potency

Inquiry: Need Potency of COc1cc(OC)c(/C=C/S(=O)(=O)Cc2ccc(OC)c(NCC(=O)O)c2)c(OC)c1 , thanks.
Reply text: 263 nM (active)

Inquiry: Returns the measured Potency for the input compound. Input: COc1c(C)c2c(c(O)c1C/C=C(\C)CCC(=O)O)C(=O)OC2
Reply text: 742 nM (active)

Inquiry: If you can, please state the reported Potency value of COc1cc(N2CCC(N)CC2)ccc1Nc1ncc(Cl)c(-c2c[nH]c3ccccc23)n1 .
Reply text: 66.1 nM (active)

Inquiry: Return reported Potency; argument: O=C(/C=C/c1cccc(S(=O)(=O)Nc2ccccc2)c1)NO
Reply text: 296 nM (active)

Inquiry: # input compound: C#CC[C@H](c1nc2cc(Cl)ccc2c(=O)n1Nc1ccccc1)N(CCCN)C(=O)c1cccc(Cl)c1F ; wanted: its Potency
Reply text: 1050 nM (active)
